# study system: HLA-A*02:01 (Homo sapiens, UniProt P04439, D140Y/D185E/D98H/E176V/E277Q/G131W/G231S/I119V/I121R/I166T/I218V/L300P/L318F/N151K/N90K/P208A/P217A/Q86G/Q94H/R138H/R169H/T345S)
# Type: binding
# condition info: percent relative the binding of positive control peptide […]; plate-bound monomer 0.5 µg/ml; duplicated experiments; positive binder >40%
Rule: Bind A*02:01 below 20% gives T, anything at or above gives F.

Here are 4 substances together with their reported answers.
HSMSSTHEA [Rv0288_70–78m1] | F
GTPNELGGA | F
YLLDGLRAQ | F
YWGAQLNAM | T

# check: Bind A*02:01 < 20% for RAVKPT GSA
T

# check: Bind A*02:01 < 20% for DAYNAAGGH
T

# check: Bind A*02:01 < 20% for VKPTGSAAI
T

---

Listed here: items and their measured Bind A*68:01.
# study system: HLA-A*68:01 (Homo sapiens, UniProt P04439, A269V/D185E/E176V/E277Q/E87N/F33Y/G231S/I121M/I166T/I218V/L180W/L300P/L318F/N151K/P208A/P217A/Q86R/R169H/T345S)
# Format: binding
# condition info: percent relative the binding of positive control peptide KTGGPIYKR; duplicated experiments; positive binder >40%
Numeric answer only, unit % assumed.

# annotated cases, reported Bind A*68:01 shown
KLAAAWGGS [Rv3875_38-46] | 0
RTISEAGQA [Rv3875_74–82] | 4
MTEQQWNFA [Rv3875_1–9] | 25
SLTKLAAAW [Rv3875_35–43] | 10
GVQQKWDAT [Rv3875_53–61] | 0

Fill in the blank: the reported Bind A*68:01 of ALQNLARTI [Rv3875_68–76] is ____.
0

Fill in the blank: the reported Bind A*68:01 of AMASTEGNV [Rv3875_82–90] is ____.
0

---

# study system: HLA-C*07:01 (Homo sapiens, UniProt P10321, K90N/S123Y)
# Assay type: binding
# condition info: percent relative the binding of positive control peptide KYFDEHYEY; duplicated experiments; positive binder >40%
Listed here: items and their measured Bind C*07:01.
Numeric answer only, unit % assumed.

# annotated cases, reported Bind C*07:01 shown
AGQAMASTE [Rv3875_79–87] | 28
AIQGNVTSI [Rv3875_17-25] | 14
LLDEGKQSL [Rv3875_28–36] | 19
SGSEAYQGV [Rv3875_46–54] | 24

Fill in the blank: the reported Bind C*07:01 of LAAAWGGSG [Rv3875_39-47] is ____.
120

Fill in the blank: the reported Bind C*07:01 of ATATELNNA [Rv3875_60–68] is ____.
0

Fill in the blank: the reported Bind C*07:01 of AAAWGGSGS [Rv3875_40-48] is ____.
29

Fill in the blank: the reported Bind C*07:01 of ATELNNALQ [Rv3875_62–70] is ____.
8

Fill in the blank: the reported Bind C*07:01 of WGGSGSEAY [Rv3875_43–51] is ____.
21

Fill in the blank: the reported Bind C*07:01 of AAWGGSGSE [Rv3875_41–49] is ____.
29

Fill in the blank: the reported Bind C*07:01 of SLTKLAAAW [Rv3875_35–43] is ____.
8

Fill in the blank: the reported Bind C*07:01 of KLAAAWGGS [Rv3875_38-46] is ____.
11

Fill in the blank: the reported Bind C*07:01 of IQGNVTSIH [Rv3875_18–26] is ____.
5

Fill in the blank: the reported Bind C*07:01 of AWGGSGSEA [Rv3875_42–50] is ____.
29

Fill in the blank: the reported Bind C*07:01 of QQKWDATAT [Rv3875_55–63] is ____.
4

Fill in the blank: the reported Bind C*07:01 of EAYQGVQQK [Rv3875_49–57] is ____.
0

Fill in the blank: the reported Bind C*07:01 of MTEQQWNFA [Rv3875_1–9] is ____.
0

Fill in the blank: the reported Bind C*07:01 of RTISEAGQA [Rv3875_74–82] is ____.
8

Fill in the blank: the reported Bind C*07:01 of AMASTEGNV [Rv3875_82–90] is ____.
3

Fill in the blank: the reported Bind C*07:01 of QQWNFAGIE [Rv3875_4–12] is ____.
11

Fill in the blank: the reported Bind C*07:01 of TATELNNAL [Rv3875_61–69] is ____.
5

Fill in the blank: the reported Bind C*07:01 of VQQKWDATA [Rv3875_54–62] is ____.
9

Fill in the blank: the reported Bind C*07:01 of LTKLAAAWG [Rv3875_36-44] is ____.
13

Fill in the blank: the reported Bind C*07:01 of ALQNLARTI [Rv3875_68–76] is ____.
0

Fill in the blank: the reported Bind C*07:01 of NLARTISEA [Rv3875_71–79] is ____.
12
